biological target: ZFP SBS#1275 (synthetic); experiment: EMSA; settings: tags: MBP fusion
Sequence (chain, as listed by the source): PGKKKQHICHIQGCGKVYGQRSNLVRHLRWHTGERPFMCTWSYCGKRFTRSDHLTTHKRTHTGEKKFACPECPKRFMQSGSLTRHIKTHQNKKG
endpoint: Kd (nM)
The reply should contain only the number, in nM.

Would you mind telling me what Kd value was observed for GCATGGGAA (dsDNA) DNA 1: GCATGGGAA DNA 2: TTCCCATGC ?
0.326
